Reference for the values: PubChem BioAssay (NCI)

Entries and their growth inhibition values follow.
Assay: NCI Yeast Anticancer Drug Screen. Data for the mec2-1 strain (AID 157)
Conditions: S. cerevisiae mec2-1 strain, at 50.0 µM, hits give high values
Procedure: Growth inhibition of yeast strains with defined genetic alterations is measured as a screen for potential anti-cancer activity. Selected strains with alterations in DNA damage repair or cell cycle control were exposed to compounds and growth inhibition was measured relative to vehicle treated controls. The strain used in this assay is mec2-1
About 79,000 compounds went through this panel and 15% of them were active in at least one assay; those are over-represented in the sample as a whole.
Response body: numeric value in %, unit text excluded.

See these solved cases before continuing.
{"columns": ["compound", "growth inhibition, %"],
 "data": [
  ["CCCCCCCC/C=C\\CCCCCCCC(=O)Cl", -33.8],
  ["O=S(=O)(Nc1cccc(C2=NCCN2)c1)c1cccc2c(S(=O)(=O)Nc3cccc(C4=NCCN4)c3)cccc12", -25.9],
  ["COC(=O)c1cc(-c2ccncc2)[nH]c(=O)c1C#N", -32.1],
  ["COc1ccc2c(c1)C(=O)C1(C2)[C@H](c2ccccc2)C2C(=O)c3cc(OC)ccc3C2[C@H]1c1ccccc1 (stereo not given in full)", -3]
]}

Now look at this one.
Given the compound `O=C1OC[C@H]2[C@@H]1[C@H]1O[C@@H]2C2=C(CCC2)C1=O` , what is its reported growth inhibition?
-38.8

* * *

assay: NCI Yeast Anticancer Drug Screen. Data for the mlh1 rad18 strain (AID 175); conditions: S. cerevisiae mlh1 rad18 strain growth inhibition; at 50.0 µM; hits give high values
This is part of a sample that, as a whole, favours compounds with a hit. Of some 79,000 tested, about 15% had one in any assay. The source made the active and inactive calls. No stated cut-off is given here; in the data, active means growth inhibition above about 70%; inactive means the rest.
experimental.readout: growth inhibition

{"columns": ["compound", "growth inhibition"],
 "data": [
  ["N#CC1(C(c2cccc3ccccc23)c2cccc3ccc4ccccc4c23)CC(=O)OC1=O (stereo unspecified)", "9.65% (inactive)"],
  ["CC(=O)c1ccc(OC(=O)Nc2ccc(C)cc2)cc1", "15.6% (inactive)"],
  ["CCC(C)OC(=S)S.[Cu+2] (stereo unspecified)", "-44.9% (inactive)"],
  ["O=C(c1ccc(Cl)cc1Cl)C(CS(=O)(=O)O)CS(=O)(=O)O", "-1.1% (inactive)"],
  ["COc1cc(C2OC[C@@H]3C(=O)OC[C@H]23)cc(O)c1OC (stereo partly specified)", "-23.7% (inactive)"]
]}

Now for a further compound.
Quick one: growth inhibition of CCOC(=O)C1=CNC(C(=O)OCC)C1c1cccn1-c1ccc(Cl)cc1[N+](=O)[O-] (stereo unspecified) ?
40.8% (inactive)

* * *

test: NCI Yeast Anticancer Drug Screen. Data for the mec2-1 strain (AID 157); settings: S. cerevisiae mec2-1 strain, at 50.0 µM, hits give high values
About 79,000 compounds went through this panel and 15% of them were active in at least one assay; those are over-represented in the sample as a whole.
experimental.readout: growth inhibition (%)
Write it as a number; the unit % goes unstated.

Some entries whose results are on file:
{"columns": ["compound", "experimental.readout", "observed.measurement"],
 "data": [
  ["CCCC(O)C(C)[N+](=O)[O-] (configuration not stated)", "growth inhibition", 4.5],
  ["Cn1cnc([N+](=O)[O-])c1Sc1nnc(C(F)(F)F)n1C", "growth inhibition", -6.95],
  ["COc1cc(/C=C/C(=O)c2sc(-n3nc(-c4ccccc4)cc3-c3ccccc3)nc2C)ccc1O", "growth inhibition", -13.6],
  ["Oc1ccc(Cl)cc1-c1cc(-c2ccccc2)nc(=S)[nH]1", "growth inhibition", -34.8],
  ["CC1(OC(=O)Nc2ccccc2)CCCCC1", "growth inhibition", -0.8]
]}

# context switch: different compound, same growth inhibition
Recorded growth inhibition of `CCC(CCC#N)(CCC#N)C(=O)c1ccc(C)s1` , please.
-4.3
